- MEASUREMENT_NOTES: in vivo
- Set-up: species or system rats
- STUDY_CONDITIONS: rat, concentrate in the lungs
REPORTED_ENDPOINT: concentration at 15 min (ng/g)
Only the number, expressed in ng/g, is required.

In: Bench note: what concentration at 15 min did COc1ccc2cc3[n+](cc2c1OC)CCc1cc2c(cc1-3)OCO2 [berberine (S04), berberine] show?
Out: 0.001

----------
- MEASUREMENT_NOTES: in vivo
- Design: species or system rats
- STUDY_CONDITIONS: rat, concentrate in the lungs
REPORTED_ENDPOINT: concentration at 90 min (ng/g)
# unit: ng/g | format: bare number

In: May I ask what concentration at 90 min has been recorded for COc1ccc2cc3[n+](cc2c1OC)CCc1cc2c(cc1-3)OCO2 [berberine (S04), berberine] ?
Out: 0.001

----------
- MEASUREMENT_NOTES: LD50
- STUDY_CONDITIONS: cat, in vivo
REPORTED_ENDPOINT: LD50

In: Given the compound `COc1ccc2cc3[n+](cc2c1OC)CCc1cc2c(cc1-3)OCO2` , what is its reported LD50?
Out: ~55 mg/kg

----------
- MEASUREMENT_NOTES: LD50, intravenous bolus
- STUDY_CONDITIONS: rat, in vivo
REPORTED_ENDPOINT: LD50

In: Given the entry `COc1ccc2cc3[n+](cc2c1OC)CCc1cc2c(cc1-3)OCO2` , report its measured LD50.
Out: ~55 mg/kg
